MEASUREMENT_NOTES: Hepatic uptake in isolated rat livers (method of Mortimore)
Format: in vitro ADME
TEST_CONTEXT: isolated perfused liver, mean ± SD of five determinations
MEASURED_ENDPOINT: hepatic extraction ratio
Format: numeric value only, no unit, no commentary.

Input line: Suppose we examine the molecule C[C@H](C1CC1C(=O)O)[C@H]1CC[C@H]2[C@@H]3[C@@H](O)C[C@@H]4C[C@H](O)CC[C@]4(C)[C@H]3CC[C@]12C (stereo partly shown) ; what hepatic extraction ratio value has been reported?
Output line: 0.46

====

MEASUREMENT_NOTES: physchem
TEST_CONTEXT: c18 hplc, methanol/water, pH 5.7
Below: a set of entries, each annotated with reported K' (retention factor).
Format: numeric value only, no unit, no commentary.

Sample answers from the record:
1. C[C@H](C1CC1C(=O)O)[C@H]1CC[C@H]2[C@@H]3[C@@H](O)C[C@@H]4C[C@H](O)CC[C@]4(C)[C@H]3CC[C@]12C (single isomer, unassigned) [Isom. C, 22,23-methanate-ursodeoxycholic acid]; 1.30
2. C[C@H](C1CC1C(=O)O)[C@H]1CC[C@H]2[C@@H]3[C@@H](O)C[C@@H]4C[C@H](O)CC[C@]4(C)[C@H]3CC[C@]12C (single isomer, unassigned) [Isom. B, 22,23-methanate-ursodeoxycholic acid]; 0.80

Input line: Suppose we examine the molecule C[C@H](C1CC1C(=O)O)[C@H]1CC[C@H]2[C@@H]3[C@@H](O)C[C@@H]4C[C@H](O)CC[C@]4(C)[C@H]3CC[C@]12C (single isomer, unassigned) [Isom. D, 22,23-methanate-ursodeoxycholic acid] ; what K' (retention factor) value has been reported?
Output line: 2.05

Input line: Suppose we examine the molecule C[C@H](C1CC1C(=O)O)[C@H]1CC[C@H]2[C@@H]3[C@@H](O)C[C@@H]4C[C@H](O)CC[C@]4(C)[C@H]3CC[C@]12C (single isomer, unassigned) [Isom. A, 22,23-methanate-ursodeoxycholic acid] ; what K' (retention factor) value has been reported?
Output line: 0.21
